Test: in vivo absorbency test (plasma concentration, pharmacokinetic parameters)
Parameters: species or system SD rats (male)
Conditions: rat, plasma, iv, 20 mg/kg, Two-Compartment Model, rats, read-out: T1/2(α)
Protocol: In addition to the in vitro tests described above, in vivo absorbency tests for the two selected compounds of formulas (I-S-1) and (I-R-1), along with Ceftadizime, were carried out by administering intravenously, in a dose of 20 mg/kg, each of these two compounds into SD rats (male) weighing 220 to 340 g; […], which were analyzed by employing the bio-assay or agar well method. About 10 to 15 rats were used for each of the compounds. Notes: (1) Two-Compartment Model […]
Result type: half-life
Remember to follow the number with its unit.

Please look up its half-life: C[C@@H](O/N=C(\C(=O)NC1C(=O)N2C(C(=O)[O-])=C(CSc3nc(N)cc(N)[n+]3N)CS[C@H]12)c1csc(N)n1)C(=O)O (some centres unmarked) 4.7 min

Please look up its half-life: C[C@H](O/N=C(\C(=O)NC1C(=O)N2C(C(=O)[O-])=C(CSc3nc(N)cc(N)[n+]3N)CS[C@H]12)c1csc(N)n1)C(=O)O (some centres unmarked) 7.6 min

====

MIC tested on Enterobacter cloacae ATCC 27508: recorded values
Express it in µg/mL; write the number only.

Request body: readout MIC, system Enterobacter cloacae ATCC 27508, query Cc1c(N)nc(SCC2=C(C(=O)[O-])N3C(=O)C(NC(=O)/C(=N\O[C@H](C)C(=O)O)c4csc(N)n4)[C@H]3SC2)[n+](C)c1N (some centres unmarked) [I-R-6] . Return the value. 0.016

Request body: readout MIC, system Enterobacter cloacae ATCC 27508, query CCC[n+]1c(N)cc(N)nc1SCC1=C(C(=O)[O-])N2C(=O)C(NC(=O)/C(=N\O[C@H](C)C(=O)O)c3csc(N)n3)[C@H]2SC1 (some centres unmarked) [I-R-4] . Return the value. 0.016

Request body: readout MIC, system Enterobacter cloacae ATCC 27508, query C[C@@H](O/N=C(\C(=O)NC1C(=O)N2C(C(=O)[O-])=C(CSc3nc(N)cc(N)[n+]3N)CS[C@H]12)c1csc(N)n1)C(=O)O (some centres unmarked) [I-R-1] . Return the value. 0.016

Request body: readout MIC, system Enterobacter cloacae ATCC 27508, query C[C@@H](O/N=C(\C(=O)NC1C(=O)N2C(C(=O)[O-])=C(CSc3nc(N)cc(N)[n+]3C)CS[C@H]12)c1csc(N)n1)C(=O)O (some centres unmarked) [I-R-2] . Return the value. 0.016

Request body: readout MIC, system Enterobacter cloacae ATCC 27508, query Cc1c(N)nc(SCC2=C(C(=O)[O-])N3C(=O)C(NC(=O)/C(=N\O[C@H](C)C(=O)O)c4csc(N)n4)[C@H]3SC2)[n+](N)c1N (some centres unmarked) [I-R-7] . Return the value. 0.063

Request body: readout MIC, system Enterobacter cloacae ATCC 27508, query CC[n+]1c(N)cc(N)nc1SCC1=C(C(=O)[O-])N2C(=O)C(NC(=O)/C(=N\O[C@H](C)C(=O)O)c3csc(N)n3)[C@H]2SC1 (some centres unmarked) [I-R-3] . Return the value. 0.016

====

Result type: MIC (µg/mL)
Express it in µg/mL; write the number only.

Request body: readout MIC, system Staphylococcus epidermidis ATCC 10537, query C[C@H](O/N=C(\C(=O)NC1C(=O)N2C(C(=O)[O-])=C(CSc3nc(N)cc(N)[n+]3N)CS[C@H]12)c1csc(N)n1)C(=O)O (stereo partly drawn) . Return the value. 2

Request body: readout MIC, system Staphylococcus epidermidis ATCC 10537, query C[C@@H](O/N=C(\C(=O)NC1C(=O)N2C(C(=O)[O-])=C(CSc3nc(N)cc(N)[n+]3C)CS[C@H]12)c1csc(N)n1)C(=O)O (stereo partly drawn) . Return the value. 2

Request body: readout MIC, system Staphylococcus epidermidis ATCC 10537, query Cc1c(N)nc(SCC2=C(C(=O)[O-])N3C(=O)C(NC(=O)/C(=N\O[C@H](C)C(=O)O)c4csc(N)n4)[C@H]3SC2)[n+](N)c1N (stereo partly drawn) . Return the value. 2

Request body: readout MIC, system Staphylococcus epidermidis ATCC 10537, query CC[n+]1c(N)cc(N)nc1SCC1=C(C(=O)[O-])N2C(=O)C(NC(=O)/C(=N\O[C@H](C)C(=O)O)c3csc(N)n3)[C@H]2SC1 (stereo partly drawn) . Return the value. 2

Request body: readout MIC, system Staphylococcus epidermidis ATCC 10537, query CCC[n+]1c(N)cc(N)nc1SCC1=C(C(=O)[O-])N2C(=O)C(NC(=O)/C(=N\O[C@@H](C)C(=O)O)c3csc(N)n3)[C@H]2SC1 (stereo partly drawn) . Return the value. 1

Request body: readout MIC, system Staphylococcus epidermidis ATCC 10537, query CC[n+]1c(N)cc(N)nc1SCC1=C(C(=O)[O-])N2C(=O)C(NC(=O)/C(=N\O[C@@H](C)C(=O)O)c3csc(N)n3)[C@H]2SC1 (stereo partly drawn) . Return the value. 1
